molecular target: Amine oxidase [flavin-containing] A (Homo sapiens); assay type: functional; further: assay procedure not described here
Sequence (P21397 whole entry): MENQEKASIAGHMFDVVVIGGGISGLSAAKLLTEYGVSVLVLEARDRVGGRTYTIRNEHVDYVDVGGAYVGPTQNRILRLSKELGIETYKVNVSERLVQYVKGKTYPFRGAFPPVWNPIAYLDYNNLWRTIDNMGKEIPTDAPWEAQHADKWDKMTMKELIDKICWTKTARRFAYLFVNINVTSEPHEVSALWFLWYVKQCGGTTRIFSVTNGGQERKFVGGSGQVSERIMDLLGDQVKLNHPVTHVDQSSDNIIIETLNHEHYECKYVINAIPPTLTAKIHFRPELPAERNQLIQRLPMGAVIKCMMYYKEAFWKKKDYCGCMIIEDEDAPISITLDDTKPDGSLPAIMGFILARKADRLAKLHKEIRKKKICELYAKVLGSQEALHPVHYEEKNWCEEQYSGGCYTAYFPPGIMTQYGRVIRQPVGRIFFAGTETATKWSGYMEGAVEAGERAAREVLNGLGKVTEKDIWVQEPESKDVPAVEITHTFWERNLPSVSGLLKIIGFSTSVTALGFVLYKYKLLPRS
PARAMETER: AC50

// solved cases for AC50 follow
N=C(N)NCCCCCCC(=O)NC(O)C(=O)NCCCCNCCCN (stereo not given) :: > 30 µM
CCCCCCNC(=O)n1cc(F)c(=O)[nH]c1=O [CARMOFUR] :: > 30 µM
C=CC1=C(C(=O)O)N2C(=O)[C@@H](NC(=O)/C(=N\OCC(=O)O)c3csc(N)n3)[C@H]2SC1 [CEFIXIME] :: > 30 µM
NS(=O)(=O)c1cc(C2(O)NC(=O)c3ccccc32)ccc1Cl (stereo not given) [CHLORTHALIDONE] :: > 10 µM
C=CC(N)CCC(=O)O (stereo not given) [VIGABATRIN] :: > 10 µM

Quick batch: AC50 for everything below.
1. NC(=O)c1ncn([C@@H]2O[C@H](CO)[C@@H](O)[C@H]2O)n1 [RIBAVIRIN]
2. C[n+]1ccccc1/C=N/O [PRALIDOXIME]
3. Cc1cnc(NC(=O)C2=C(O)c3ccccc3S(=O)(=O)N2C)s1 [MELOXICAM]

Resp:
["> 10 µM", "> 30 µM", "> 10 µM"]

For each of the items listed, what is its AC50?
1. CO[C@@]1(NC(=O)CSCC#N)C(=O)N2C(C(=O)O)=C(CSc3nnnn3C)CS[C@@H]21 [CEFMETAZOLE]
2. NC(=O)CCC/N=C(\c1ccc(Cl)cc1)c1cc(F)ccc1O [PROGABIDE]

Resp:
["> 30 µM", "> 10 µM"]

###

Target: Progesterone receptor (Homo sapiens, UniProt P06401); further: assay procedure not described here
Sequence (P06401 whole entry): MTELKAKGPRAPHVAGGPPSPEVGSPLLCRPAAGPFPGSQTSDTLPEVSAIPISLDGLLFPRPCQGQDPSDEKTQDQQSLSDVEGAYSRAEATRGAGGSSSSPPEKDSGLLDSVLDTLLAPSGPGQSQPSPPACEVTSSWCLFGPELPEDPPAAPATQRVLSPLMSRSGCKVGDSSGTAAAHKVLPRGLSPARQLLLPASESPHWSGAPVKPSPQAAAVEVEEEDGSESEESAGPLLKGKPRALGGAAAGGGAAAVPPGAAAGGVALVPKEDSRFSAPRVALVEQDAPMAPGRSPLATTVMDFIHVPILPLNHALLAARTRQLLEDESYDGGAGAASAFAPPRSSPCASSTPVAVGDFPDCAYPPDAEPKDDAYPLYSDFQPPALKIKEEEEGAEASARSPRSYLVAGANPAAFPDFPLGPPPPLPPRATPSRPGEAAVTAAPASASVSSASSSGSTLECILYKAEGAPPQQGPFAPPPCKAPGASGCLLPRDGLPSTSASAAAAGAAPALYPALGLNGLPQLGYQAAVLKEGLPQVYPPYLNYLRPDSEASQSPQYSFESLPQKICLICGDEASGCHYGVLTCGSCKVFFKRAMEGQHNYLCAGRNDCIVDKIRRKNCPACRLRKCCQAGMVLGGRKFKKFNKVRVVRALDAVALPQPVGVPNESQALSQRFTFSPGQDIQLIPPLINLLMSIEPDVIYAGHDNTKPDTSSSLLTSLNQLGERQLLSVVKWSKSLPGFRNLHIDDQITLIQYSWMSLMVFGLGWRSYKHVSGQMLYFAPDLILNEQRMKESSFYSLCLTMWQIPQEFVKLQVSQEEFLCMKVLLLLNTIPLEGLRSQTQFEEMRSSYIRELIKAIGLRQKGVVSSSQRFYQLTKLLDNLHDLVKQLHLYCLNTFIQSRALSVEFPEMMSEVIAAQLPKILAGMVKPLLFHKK
Format: functional
PARAMETER: AC50

Known AC50 results, listed for orientation:
N=C(N)NCCCCCCC(=O)NC(O)C(=O)NCCCCNCCCN (stereo unspecified) :: > 30 µM
CCC(C)(Oc1ccc(C2(c3ccc(OC(C)(CC)C(=O)O)cc3)CCCCC2)cc1)C(=O)O (stereo unspecified) [CLINOFIBRATE] :: > 30 µM
CC(=O)OCC(=O)[C@@]1(O)CC[C@H]2[C@@H]3CCC4=CC(=O)CC[C@]4(C)C3=CC[C@@]21C [ANECORTAVE ACETATE] :: > 30 µM
CC(C)N(CCCCOCC(=O)NS(C)(=O)=O)c1cnc(-c2ccccc2)c(-c2ccccc2)n1 [SELEXIPAG] :: > 30 µM
CCCN(CCc1cccs1)[C@H]1CCc2c(O)cccc2C1 [ROTIGOTINE] :: > 30 µM

Next compound, AC50 to be filled in.
Req: Could you please provide reported AC50 for C=CC(N)CCC(=O)O (stereo unspecified) [VIGABATRIN] ? Thanks!
Resp: > 10 µM

###

Would you mind telling me the reported AC50 of each entry?
molecular target: D(1A) dopamine receptor (Homo sapiens); further: assay procedure not described here
Sequence (P21728 whole entry): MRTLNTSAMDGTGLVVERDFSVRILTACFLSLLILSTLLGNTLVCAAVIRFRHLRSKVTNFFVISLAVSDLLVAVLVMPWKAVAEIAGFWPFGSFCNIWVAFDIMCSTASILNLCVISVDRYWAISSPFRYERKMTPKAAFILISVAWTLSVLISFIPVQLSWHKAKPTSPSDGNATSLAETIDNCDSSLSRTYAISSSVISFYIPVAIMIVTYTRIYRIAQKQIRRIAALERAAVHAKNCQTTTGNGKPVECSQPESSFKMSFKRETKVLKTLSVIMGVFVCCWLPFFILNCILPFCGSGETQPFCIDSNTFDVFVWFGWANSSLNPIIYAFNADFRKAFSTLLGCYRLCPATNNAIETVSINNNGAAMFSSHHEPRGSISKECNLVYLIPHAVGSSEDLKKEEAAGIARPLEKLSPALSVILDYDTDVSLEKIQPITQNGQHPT

CCCCOc1ccc(CC(=O)NO)cc1 :: > 30 µM

Dear reader, for each entry below, please note its AC50.
1. O=C(NC(Cc1cc(=O)[nH]c2ccccc12)C(=O)O)c1ccc(Cl)cc1 (stereo not drawn) [REBAMIPIDE]
2. CC1(C)O[C@@H]2C[C@H]3[C@@H]4CCC5=CC(=O)CC[C@]5(C)[C@@]4(F)[C@@H](O)C[C@]3(C)[C@]2(C(=O)CCl)O1 [HALCINONIDE]

Resp:
> 30 µM
> 30 µM

###

This section lists AC50 readings for D(3) dopamine receptor (Homo sapiens, UniProt P35462).

Here is how some compounds turned out for AC50.
CN(C)CCC(c1ccccc1)c1ccccn1 (centres undefined) [PHENIRAMINE] :: > 30 µM
CCOC(=O)[C@H](CCc1ccccc1)N[C@H]1CS[C@H](c2cccs2)CN(CC(=O)O)C1=O [TEMOCAPRIL] :: > 30 µM
NC(=O)NCCC[C@H](N)C(=O)O [L-CITRULLINE] :: > 30 µM
O=C(Oc1ccccc1C(=O)O)c1ccccc1O [SALSALATE] :: > 30 µM
N[C@@H](Cc1c[nH]c2ccc(O)cc12)C(=O)O [OXITRIPTAN] :: > 30 µM

Lab note: each compound below needs its AC50 filled in.
1. C[C@H]1O[C@@H](O[C@H]2[C@@H](O)C[C@H](O[C@H]3[C@@H](O)C[C@H](O[C@H]4CC[C@@]5(C)[C@H](CC[C@@H]6[C@@H]5CC[C@]5(C)[C@@H](C7=CC(=O)OC7)CC[C@]65O)C4)O[C@@H]3C)O[C@@H]2C)C[C@H](O)[C@@H]1O [DIGITOXIN]
2. Cn1c(=O)c2c(ncn2CC(O)CO)n(C)c1=O (centres undefined) [DYPHYLLINE]
3. Nc1ncnc(Nc2ccc(Cl)cc2)n1 [CHLORAZANIL]
4. CC(=O)OCC[N+](C)(C)C [ACETYLCHOLINE]
5. CC(C)COc1ccc(CNC(=O)N(Cc2ccc(F)cc2)C2CCN(C)CC2)cc1 [PIMAVANSERIN]
6. CC(N)CCCC(C)(C)O (centres undefined) [HEPTAMINOL]

Resp:
> 30 µM
> 30 µM
> 30 µM
> 30 µM
2.66 µM
> 30 µM

###

Field: AC50. Provide a value for each of the compounds that follow.
target: Melanocortin receptor 4 (Homo sapiens); further: assay procedure not described here
Sequence (P32245 whole entry): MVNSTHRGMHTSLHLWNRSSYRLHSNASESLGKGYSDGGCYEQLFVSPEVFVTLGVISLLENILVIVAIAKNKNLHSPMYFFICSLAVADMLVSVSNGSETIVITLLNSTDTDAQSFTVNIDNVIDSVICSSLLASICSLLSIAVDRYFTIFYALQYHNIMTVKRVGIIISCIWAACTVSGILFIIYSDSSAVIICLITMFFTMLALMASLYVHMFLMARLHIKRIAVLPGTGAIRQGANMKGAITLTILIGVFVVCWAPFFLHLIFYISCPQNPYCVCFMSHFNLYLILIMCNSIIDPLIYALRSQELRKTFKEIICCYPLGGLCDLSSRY

# per-item lookup of AC50; items listed below
1. CC(=O)OCC(=O)[C@@]1(O)CC[C@H]2[C@@H]3CCC4=CC(=O)CC[C@]4(C)C3=CC[C@@]21C [ANECORTAVE ACETATE]
2. O=C(O)c1ccccc1Nc1cccc(C(F)(F)F)c1 [FLUFENAMIC ACID]
3. NC(=O)CCC/N=C(\c1ccc(Cl)cc1)c1cc(F)ccc1O [PROGABIDE]
4. CN(C)c1cc(NC(=O)CNC(C)(C)C)c(O)c2c1C[C@H]1C[C@H]3[C@H](N(C)C)C(O)=C(C(N)=O)C(=O)[C@@]3(O)C(O)=C1C2=O [TIGECYCLINE]

Resp:
> 10 µM
> 30 µM
> 10 µM
> 30 µM

Working through the 8 compounds below one at a time, give AC50 for each.
1. O=c1oc2ccccc2c(O)c1Cc1c(O)c2ccccc2oc1=O [DICUMAROL]
2. C[C@]1(COc2ccc(N3CCC(Oc4ccc(OC(F)(F)F)cc4)CC3)cc2)Cn2cc([N+](=O)[O-])nc2O1
3. CCCC(C)(COC(N)=O)COC(=O)NC(C)C (stereo not given) [CARISOPRODOL]
4. CCn1cc(C(=O)O)c(=O)c2cc(F)c(N3CCNCC3)nc21 [ENOXACIN]
5. CC(=O)S[C@@H]1CC2=CC(=O)CC[C@]2(C)[C@H]2CC[C@@]3(C)[C@@H](CC[C@@]34CCC(=O)O4)[C@H]12 [SPIRONOLACTONE]
6. [H]/N=C(/N)N[C@H]1[C@H](O)[C@@H](O)[C@H](O[C@@H]2O[C@@H](C)[C@](O)(C=O)[C@H]2O[C@@H]2O[C@@H](CO)[C@H](O)[C@@H](O)[C@@H]2NC)[C@@H](N/C(N)=N\[H])[C@@H]1O [STREPTOMYCIN]
7. CC(C)CC(N(C)C)C1(c2ccc(Cl)cc2)CCC1 (stereo not given) [SIBUTRAMINE]
8. CC(CCc1ccccc1)NC(C)C(O)c1ccc(O)cc1 (stereo not given) [NYLIDRIN]

Resp:
1: > 10 µM; 2: > 30 µM; 3: > 30 µM; 4: > 30 µM; 5: > 30 µM; 6: > 30 µM; 7: > 30 µM; 8: > 30 µM

Here are 7 compounds. What values of AC50 were reported for them?
1. NCCCC(O)(P(=O)(O)O)P(=O)(O)O [ALENDRONIC ACID]
2. N#C[C@@H]1CCCN1C(=O)CNC12CC3CC(CC(O)(C3)C1)C2 [VILDAGLIPTIN]
3. Cn1c(=O)c2[nH]cnc2n(C)c1=O [THEOPHYLLINE]
4. CC(C)C[C@H](CN)CC(=O)O [PREGABALIN]
5. Clc1cccc(Cl)c1N=C1NCCN1 [CLONIDINE]
6. COc1ccnc(C[S+]([O-])c2nc3ccc(OC(F)F)cc3[nH]2)c1OC (stereo not given) [PANTOPRAZOLE]
7. COC(=O)N[C@@H](C)CNc1nccc(-c2cn(C(C)C)nc2-c2cc(Cl)cc(NS(C)(=O)=O)c2F)n1 [ENCORAFENIB]

Resp:
1. > 30 µM
2. > 30 µM
3. > 30 µM
4. > 30 µM
5. > 30 µM
6. > 30 µM
7. > 30 µM
